- targetUnderTest: Protein RecA (Mycobacterium tuberculosis)
- procedureText: Fluorescence Cell-Free Homogeneous Dose Retest to Identify Inhibitors of RecA-Intein Splicing Activity. [Related pubchem assays (depositor defined):AID2097, AID2223, AID489010, AID492950]
- Type: functional
The source made the active and inactive calls.
Possible outcomes: active, inactive

[
  {
    "compound": "Cc1ccc(C2CC(c3cccs3)=NN2C(=O)CSC2=NCCS2)cc1 (stereo not given)",
    "class": "active"
  },
  {
    "compound": "CCOC(=O)CSCCOc1ccc(C=C2C(=O)NC(=O)NC2=O)cc1OC",
    "class": "inactive"
  },
  {
    "compound": "O=C1CCN(N=Nc2cccc(Cl)c2)N1",
    "class": "active"
  },
  {
    "compound": "CCOC(=O)c1sc(N(Cc2ccccc2)C(=O)CCl)nc1C",
    "class": "active"
  },
  {
    "compound": "Cc1nn(-c2ccccc2)c2c1C(c1ccc(F)cc1F)C(C#N)=C(N)O2 (stereo not given)",
    "class": "active"
  },
  {
    "compound": "CSc1nnc(NC(=O)c2nc(S(=O)(=O)Cc3cccc(C)c3)ncc2Cl)s1",
    "class": "active"
  },
  {
    "compound": "CCOC(=O)N1C(=O)[C@](c2ccc(Cl)cc2)(C(C)C)N1C(=O)OCC",
    "class": "active"
  },
  {
    "compound": "C#CC(=O)N(c1cc(OC)ccc1OC)C(C(=O)NC1CCCC1)c1cccs1 (stereo not given)",
    "class": "active"
  },
  {
    "compound": "CC(/C=N/NC(=O)Cc1cc(O)[nH]n1)=C\\c1ccccc1",
    "class": "active"
  },
  {
    "compound": "O=C(Cc1cc(O)n[nH]1)N/N=C/c1ccccc1[N+](=O)[O-]",
    "class": "active"
  },
  {
    "compound": "N#CC1(C#N)CC(C=O)=C(N)C1(C#N)CC(=O)C12CC3CC(CC(C3)C1)C2 (stereo not given)",
    "class": "active"
  },
  {
    "compound": "Cc1cc(C(=O)CCl)c(C)n1CC1COc2ccccc2O1 (stereo not given)",
    "class": "active"
  },
  {
    "compound": "COc1cc(/C=C2/SC(=S)NC2=O)ccc1OS(=O)(=O)c1ccc(C)cc1",
    "class": "active"
  },
  {
    "compound": "Cc1ccc(C(=O)NC(C#N)=C(Cl)Cl)cc1",
    "class": "active"
  },
  {
    "compound": "COc1ccc(C2C(O)C(c3c[nH]c4ccccc34)=NN2C(=O)CCl)cc1 (stereo not given)",
    "class": "active"
  },
  {
    "compound": "Cc1ccsc1/C=N/NC(=O)Cc1cc(O)[nH]n1",
    "class": "active"
  },
  {
    "compound": "COc1ccc(N(C(=O)c2ccco2)S(=O)(=O)c2cccs2)cc1",
    "class": "active"
  },
  {
    "compound": "CCOC(=O)c1c(NC(=O)c2ccco2)n(C2CCCCC2)c2nc3ccccc3nc12",
    "class": "active"
  },
  {
    "compound": "CCOc1ccc(CN(C)C(=O)CCl)cc1",
    "class": "active"
  }
]

----------
Form field: IC50 (one value per entry).
- targetUnderTest: Eukaryotic translation initiation factor 4E (Mus musculus)
- Sequence (P63073 whole entry): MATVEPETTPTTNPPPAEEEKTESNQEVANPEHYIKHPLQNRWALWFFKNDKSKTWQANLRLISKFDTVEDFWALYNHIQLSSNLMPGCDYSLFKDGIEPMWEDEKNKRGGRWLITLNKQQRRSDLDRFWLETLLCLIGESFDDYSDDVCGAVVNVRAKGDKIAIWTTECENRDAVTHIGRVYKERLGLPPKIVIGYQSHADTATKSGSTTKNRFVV
- procedureText: eIF4E–eIF4G protein interaction inhibitors, dose response, biochemical, TR-FRET (AID 855);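 also: potency for disrupting eIF4E binding to eIF4GI seen as loss of FRET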
- Type: functional
Active and inactive are the calls of the source.

[
  {
    "smilesStr": "CCOC(=O)C1CCN(C(=O)Nc2ccc3nc(-c4ccco4)c(-c4ccco4)nc3c2)CC1",
    "IC50": "21.2 µM (inactive)"
  },
  {
    "smilesStr": "Sc1nnc(-c2ccco2)n1/N=C/c1ccc(Cl)cc1Cl",
    "IC50": "> 64 µM (inactive)"
  },
  {
    "smilesStr": "Cc1ccc(-c2csc(NC(=O)CSc3nc4ccccc4c(=O)n3CCCN(C)C)n2)cc1",
    "IC50": "50 µM (inactive)"
  },
  {
    "smilesStr": "COc1ccccc1NS(=O)(=O)c1ccc(NN=C2CCCC2)c([N+](=O)[O-])c1",
    "IC50": "> 64 µM (inactive)"
  }
]

----------
Reported values: AC50 for Cytochrome P450 2C9 (Homo sapiens), one per item.

[
  {
    "compound": "COc1ccccc1CNC(=O)C1CC(=O)N(C2CCCC2)C1 (stereo not given)",
    "AC50": "0.0224 µM (inconclusive)"
  },
  {
    "compound": "COC(=O)c1cnn(C(=O)c2ccccc2Br)c1N",
    "AC50": "22.4 µM (inconclusive)"
  },
  {
    "compound": "N#Cc1cccc(-c2ccc3ncnc(NCc4cccs4)c3c2)c1",
    "AC50": "0.501 µM (inconclusive)"
  },
  {
    "compound": "CCC1=C(C[C@H]2NCCc3cc(OC)c(OC)cc32)C[C@H]2c3ccccc3CCN2C1",
    "AC50": "3.16 µM (inconclusive)"
  },
  {
    "compound": "CCC1C(=O)N=C(SCC(=O)Nc2ccc(C(=O)OC)cc2)NC1=O (stereo not given)",
    "AC50": "31.6 µM (inconclusive)"
  },
  {
    "compound": "CCN(CC)CCCNC(=O)C1CCC(=O)N(c2ccc(OC)cc2)C1c1ccc(F)cc1 (stereo not given)",
    "AC50": "39.8 µM (inconclusive)"
  },
  {
    "compound": "CC1(C)CC(NC(=O)c2ccc3c(c2)OCO3)CC(C)(C)N1",
    "AC50": "8.91 µM (inconclusive)"
  },
  {
    "compound": "COc1ccc(Cc2nnc(NC(=O)c3ccc(Cl)c([N+](=O)[O-])c3)s2)cc1",
    "AC50": "1.41 µM (inconclusive)"
  },
  {
    "compound": "COc1cc(NC(=O)c2ccccc2Cl)ccc1NC(=O)c1ccco1",
    "AC50": "1.12 µM (inconclusive)"
  },
  {
    "compound": "CC(C)C(=O)Nc1ccc(C(=O)NNC(=O)C(c2ccccc2)c2ccccc2)cc1",
    "AC50": "5.01 µM (inconclusive)"
  }
]

----------
- targetUnderTest: Nuclear receptor subfamily 0 group B member 1 (Homo sapiens, UniProt P51843)
- Sequence (P51843 whole entry): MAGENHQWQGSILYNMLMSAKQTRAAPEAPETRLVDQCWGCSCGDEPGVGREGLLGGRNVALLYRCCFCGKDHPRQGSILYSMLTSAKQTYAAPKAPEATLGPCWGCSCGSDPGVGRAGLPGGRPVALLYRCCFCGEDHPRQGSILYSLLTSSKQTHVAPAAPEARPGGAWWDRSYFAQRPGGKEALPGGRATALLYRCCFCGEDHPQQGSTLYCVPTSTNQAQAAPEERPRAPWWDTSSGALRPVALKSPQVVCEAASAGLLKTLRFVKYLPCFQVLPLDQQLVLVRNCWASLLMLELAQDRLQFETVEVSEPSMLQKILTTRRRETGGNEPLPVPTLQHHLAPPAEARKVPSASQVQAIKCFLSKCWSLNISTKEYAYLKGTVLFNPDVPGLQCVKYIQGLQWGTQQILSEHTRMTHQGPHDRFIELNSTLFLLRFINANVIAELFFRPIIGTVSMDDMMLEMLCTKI
- procedureText: Luminescence-based cell-based high throughput dose response assay for inhibitors of the orphan nuclear receptor subfamily 0, group B, member 1 (DAX1; NR0B1). [Related pubchem assays (depositor defined):AID504766, AID504790]
- Type: functional
Activity calls are given as the source filed them.
Possible outcomes: active, inactive

[
  {
    "molecule": "Cn1c(=O)n(C)c2cc(C(=O)Nc3ccc4c(c3)OCO4)ccc21",
    "class": "active"
  },
  {
    "molecule": "C#CCOC(=O)C[N+](C)(C)CC#Cc1ccccc1",
    "class": "inactive"
  },
  {
    "molecule": "COc1ccc([N+](=O)[O-])cc1NC(=S)NC(C)=O",
    "class": "inactive"
  },
  {
    "molecule": "COc1ccccc1NC(=O)N1CCCC(C(=O)Nc2cccc(C)c2C)C1 (stereo not given)",
    "class": "inactive"
  },
  {
    "molecule": "CC1(C)Cc2c(sc3nc(C4CC4)n(N)c(=O)c23)CO1",
    "class": "inactive"
  }
]

----------
Form field: IC50 (one value per entry).
- targetUnderTest: Hexokinase (Trypanosoma brucei)
- Sequence (Q38C41 whole entry): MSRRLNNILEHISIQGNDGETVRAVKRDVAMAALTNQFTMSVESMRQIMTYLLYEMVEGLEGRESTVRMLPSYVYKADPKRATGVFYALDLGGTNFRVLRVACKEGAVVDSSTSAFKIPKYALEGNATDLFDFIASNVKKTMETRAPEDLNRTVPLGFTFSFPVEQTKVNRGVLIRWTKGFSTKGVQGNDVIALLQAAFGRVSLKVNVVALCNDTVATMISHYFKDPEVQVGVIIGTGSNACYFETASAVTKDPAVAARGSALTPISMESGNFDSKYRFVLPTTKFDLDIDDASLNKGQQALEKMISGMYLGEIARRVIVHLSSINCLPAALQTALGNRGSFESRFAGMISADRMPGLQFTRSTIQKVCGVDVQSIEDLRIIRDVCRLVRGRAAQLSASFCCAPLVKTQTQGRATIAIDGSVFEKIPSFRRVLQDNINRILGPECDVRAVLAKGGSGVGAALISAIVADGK
- procedureText: Confirmation assay for inhibitors of Trypanosoma brucei hexokinase 1-Analogue-first series. [Related pubchem assays (depositor defined):AID1430, AID1632, AID2516, AID2560, AID2579, AID2600, AID449725, AID492951]
- Format: functional
Activity calls are given as the source filed them.

[
  {
    "smilesStr": "O=c1c2ccccc2on1-c1ccccc1",
    "IC50": "> 25 µM (inactive)"
  },
  {
    "smilesStr": "O=C(Nc1ccccc1)n1sc2ccccc2c1=O",
    "IC50": "> 25 µM (inactive)"
  },
  {
    "smilesStr": "COc1ccccc1C(=O)Nc1cc(Cl)ccc1C(=O)O",
    "IC50": "> 25 µM (inactive)"
  },
  {
    "smilesStr": "O=c1c2ccc(Br)cc2sn1-c1ccccc1",
    "IC50": "3.61 µM (active)"
  },
  {
    "smilesStr": "O=c1c2ccc([N+](=O)[O-])cc2sn1-c1ccccc1",
    "IC50": "11.6 µM (active)"
  },
  {
    "smilesStr": "O=C(Nc1cc(Cl)ccc1C(=O)O)c1ccncc1",
    "IC50": "> 25 µM (inactive)"
  }
]
